// IC50 lookup, one value per entry
Target: A. fumigatus enzyme (AfPanK) (Aspergillus fumigatus, UniProt Q4WWV3)
Sequence (Q4WWV3 entry or part of it): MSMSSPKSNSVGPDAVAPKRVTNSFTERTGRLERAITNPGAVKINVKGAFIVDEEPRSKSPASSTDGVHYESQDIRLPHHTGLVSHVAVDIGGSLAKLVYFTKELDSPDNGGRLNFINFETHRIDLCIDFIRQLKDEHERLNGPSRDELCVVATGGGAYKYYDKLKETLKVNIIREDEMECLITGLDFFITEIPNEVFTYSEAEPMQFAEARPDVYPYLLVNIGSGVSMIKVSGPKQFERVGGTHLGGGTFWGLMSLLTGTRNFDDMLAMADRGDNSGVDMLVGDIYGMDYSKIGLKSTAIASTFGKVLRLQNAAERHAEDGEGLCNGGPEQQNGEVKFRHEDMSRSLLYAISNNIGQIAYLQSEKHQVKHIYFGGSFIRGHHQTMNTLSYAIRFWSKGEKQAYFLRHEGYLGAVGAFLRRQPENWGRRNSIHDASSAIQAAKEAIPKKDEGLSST
Assay: Inhibition of A. fumigatus pantothenate kinase (AfPanK)
Type: biochemical
Conditions: Table 1; read-out: A. fum. IC50
Write it as a number; the unit µM goes unstated.

# COMPOUND SMILES, TEST RESULT
measured = [
    ("CC(C)NCc1cc(=O)n2nc(NCc3ccc(C(C)C)cc3)nc2[nH]1", 53),
]

Incoming: Write down IC50 measured for item Cc1cc(C(=O)O)n2nc(NCc3ccc(C(C)(C)C)cc3)nc2n1
Outgoing: 0.086

Incoming: Write down IC50 measured for item CCOc1cc(CN2CCOCC2)nc2nc(NCc3ccc(C(C)(C)C)cc3)nn12
Outgoing: 98

----------
Test system: HeLa cells
Test: General toxicity against HeLa cells, 72 hr
Assay type: cell-based
Details: Homo sapiens, HeLa, Table 1, read-out: EC50 HeLa Tox 72 hr
pEC50: −log10 of the molar value.
// pEC50 lookup, one value per entry

# COMPOUND SMILES, pEC50
rows = [
    ("CC(C)(C)c1ccc(CNc2nc3nc(CN4CCOCC4)cc(N)n3n2)cc1", "< 4.00"),
    ("COc1cc(CN2CCOCC2)nc2nc(NCc3ccc(C(C)(C)C)cc3)nn12", "< 4.00"),
    ("CC(C)(C)c1ccc(CNc2nc3nc(CN4CCOCC4)cc(Cl)n3n2)cc1", 5.64),
]

Here is the next item to consider.
Incoming: Write down pEC50 measured for item Cc1cc(C(=O)O)n2nc(NCc3ccc(C(C)(C)C)cc3)nc2n1
Outgoing: < 4.00

----------
Target: hPanK3 (Homo sapiens, UniProt Q9H999)
Sequence (Q9H999 whole entry): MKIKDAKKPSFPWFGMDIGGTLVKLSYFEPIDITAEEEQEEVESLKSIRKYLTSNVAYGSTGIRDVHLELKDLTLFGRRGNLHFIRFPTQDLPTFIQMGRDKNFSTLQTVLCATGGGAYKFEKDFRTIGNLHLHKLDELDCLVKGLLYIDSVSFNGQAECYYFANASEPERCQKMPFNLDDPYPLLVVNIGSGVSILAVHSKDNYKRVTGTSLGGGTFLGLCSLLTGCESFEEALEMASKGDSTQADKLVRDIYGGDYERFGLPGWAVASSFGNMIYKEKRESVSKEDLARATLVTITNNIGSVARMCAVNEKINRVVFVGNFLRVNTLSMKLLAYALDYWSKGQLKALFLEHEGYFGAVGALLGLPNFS
Assay: Modulation of human PanK (hPanK3)
Assay type: biochemical
Conditions: Table 2; activation
MEASURED PROPERTY: log10(AC50) (log10 of the value in nM)
Heads up, the numbers here are log10 of AC50 in nM units.

Worked examples follow.
# COMPOUND, MEASURED PROPERTY, TEST RESULT
data = [
    ("CN1CCN(Cc2cc(=O)n3nc(NCc4ccc(C(C)(C)C)cc4)nc3[nH]2)CC1 [Compound B8]", "log10(AC50)", 2.20),
    ("CC(C)c1ccc(CNc2nc3[nH]c(CN4CCOCC4)cc(=O)n3n2)cc1 [Compound B1]", "log10(AC50)", 0.23),
]

Incoming: Write down log10(AC50) measured for item Cc1cc(=O)n2nc(NCc3ccc(C(C)C)cc3)nc2[nH]1 [Compound B2]
Outgoing: 0.72

Incoming: Write down log10(AC50) measured for item Cc1ccccc1-c1nc2[nH]c(CNc3ccccc3)cc(=O)n2n1 [Compound B3]
Outgoing: 1.38

Incoming: Write down log10(AC50) measured for item CNc1cc(CN2CCOCC2)nc2nc(NCc3ccc(C(C)(C)C)cc3)nn12 [Compound B5]
Outgoing: 1.58

----------
// IC50 lookup, one value per entry
Target: Cab1 (Saccharomyces cerevisiae)
Construct: His6; made in house
Sequence (Q04430 whole entry): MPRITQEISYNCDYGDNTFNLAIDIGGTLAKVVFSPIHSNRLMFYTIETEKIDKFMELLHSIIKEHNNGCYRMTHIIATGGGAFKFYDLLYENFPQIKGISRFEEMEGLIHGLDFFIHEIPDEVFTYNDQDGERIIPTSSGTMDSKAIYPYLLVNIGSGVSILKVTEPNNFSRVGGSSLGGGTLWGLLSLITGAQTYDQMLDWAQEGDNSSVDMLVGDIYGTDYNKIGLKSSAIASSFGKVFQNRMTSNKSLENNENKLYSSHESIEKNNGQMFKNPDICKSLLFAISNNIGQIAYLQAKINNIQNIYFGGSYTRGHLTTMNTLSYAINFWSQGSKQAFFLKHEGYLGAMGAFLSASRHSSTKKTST
Experiment: Inhibition of Cab1 pantothenate kinase
Format: biochemical
Details: read-out: A cer. Cab1 IC50 μM; Table 2
Procedure: The activity of recombinant His6-tagged Cab1p and cab1^G351S was determined in vitro using the Kinase-Glo Plus Luminescent Kinase (Kinase-Glo) assay as described in Chiu, et al., 2017, Scientific Reports 7:14234. […] At the end of the incubation, an equal volume (10 μL) of Kinase-Glo reagent was added to each sample, the plates were further incubated for 5 min and luminescence was recorded using BioTek SynergyMx microplate reader (excitation wavelength 485; emission wavelength 528). […]
Write it as a number; the unit µM goes unstated.

Worked examples follow.
# COMPOUND SMILES, IC50 / µM
data = [
    ("CNc1cc(CN2CCOCC2)nc2nc(NCc3ccc(C(C)(C)C)cc3)nn12", 9.4),
    ("CC(C)(C)c1ccc(CNc2nc3[nH]c(CN4CCCCC4)cc(=O)n3n2)cc1", 30),
    ("CN1CCN(Cc2cc(=O)n3nc(NCc4ccc(C(C)(C)C)cc4)nc3[nH]2)CC1", 0.55),
]

Here is the next item to consider.
Incoming: Write down IC50 measured for item CC(C)(C)c1ccc(CNc2nc3[nH]c(CN4CCOCC4)cc(=O)n3n2)cc1
Outgoing: 0.19
